test: TOX21_p53_BLA_p3_viability: Viability Assessment in the Tox21 HCT-116 p53 Agonism Beta-lactamase Assay, Phase 3 (AID 2283593);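 also: cells exposed to compound for 16 h before reading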
Inconclusive results are not listed. The source made the active and inactive calls. The calls were made as follows: active = hit-call score of the fitted dose curve at least 0.9, where 1 is the maximum; inconclusive = response in the unintended direction; inactive = score below 0.9.
EXPERIMENTAL READOUT: AC50

COMPOUND: C1CCCC1.C1CCCC1.[Cl][V][Cl]
EXPERIMENTAL READOUT: AC50
EXPERIMENTAL VALUE: inactive
--
COMPOUND: CC(=O)O[C@]1(C(C)=O)CC[C@H]2[C@@H]3C=C(C)C4=CC(=O)CC[C@]4(C)[C@H]3CC[C@@]21C
EXPERIMENTAL READOUT: AC50
EXPERIMENTAL VALUE: inactive
--
COMPOUND: CCO[Si](C)(CCCOCC1CO1)OCC (stereo unspecified)
EXPERIMENTAL READOUT: AC50
EXPERIMENTAL VALUE: inactive
--
COMPOUND: O=[N+]([O-])c1c(Cl)cccc1-c1c[nH]cc1Cl
EXPERIMENTAL READOUT: AC50
EXPERIMENTAL VALUE: 37.2 µM (active)
--
COMPOUND: CC(=O)c1sc(C)nc1C
EXPERIMENTAL READOUT: AC50
EXPERIMENTAL VALUE: inactive
--
COMPOUND: CC(C)CCOC(=O)c1ccc(N(C)C)cc1
EXPERIMENTAL READOUT: AC50
EXPERIMENTAL VALUE: inactive

Where do these numbers come from? They come from PubChem BioAssay (EPA / NIEHS).
